- assayed.system: CLDN3/4 endogenously expressed on LS513 and MCF7 cells
- assay: FACS dose curve, labelled mAb, LS513 cells
The entries below are paired with their reported EC50.

# binder, EC50 / µM
rows = [
    ("AB12 (antibody, V domains shown) VH: EVKLMESGGDLVKPGGSLKLSCAASGFTFSSYAMSWVRQTPEKRLEWVASIRSGGTTYYPDSVKGRFTISRDNARNILYLRMSSLRSEDTAIYYCAKVGGNPYPMDYWGQGTSVTVSS VL: DIQMIQSPSSMFASLGDRVSLSCRASQDIGGNLDWYQQKPGGTIKLLIYSTSNLNSGVPSRFSGSGSGSDYSLTITSLESEDFADYYCLQRNAYPLTFGAGTKLELK", 2.27),
    ("AB17 (antibody, V domains shown) VH: QVQLQQSGAELAKPGASVKMSCKASGYTFTGYWMHWVKQRPGQGLEWLGYINPSTGYTESNQKFKDKATLTADKSSTTAYMQLRSLTPEDSAVYYCAREGITTVLVDYWGQGTTLTVSS VL: QIVLTQSPAIMSASLGERVTMTCTASSSVSSSYLHWYQQKPGSSPKLWIYSTSNLASGVPARFSGSGSGTSYSLTISSMEAEDAATYYCHQYHRSPPTFGAGTKLELK", 5),
]
